The measurements presented in this section are drawn from the Immune Epitope Database (IEDB).

# Measurement Target: HLA-A*02:06
# Procedure Details: IEDB peptide-MHC binding, purified MHC/competitive/radioactivity; filed as Kd, often an IC50 or EC50 that approximates it; bounds were set here for any values at or beyond the usual limits of such assays
# Condition Parameters: source organism: Dengue virus 1 Brazil/97-11/1997
pKd: −log10 of the molar value.
Reported pKd values follow for various sequences
Reported Property: pKd

[
  {
    "Sequence Text": "YVMCTGSFKL",
    "Readout Value": 7.73
  },
  {
    "Sequence Text": "FAVGLLFRRL",
    "Readout Value": 7.69
  },
  {
    "Sequence Text": "KILNPYMPSV",
    "Readout Value": 8.29
  },
  {
    "Sequence Text": "ILNPYMPSV",
    "Readout Value": 8.30
  },
  {
    "Sequence Text": "YVVTTDISEM",
    "Readout Value": 5.94
  }
]

---

# Measurement Target: HLA-B*07:02
# Procedure Details: IEDB peptide-MHC binding, purified MHC/direct/fluorescence; filed as Kd, often an IC50 or EC50 that approximates it; bounds were set here for any values at or beyond the usual limits of such assays
# Condition Parameters: source organism: Haemophilus influenzae
Reported Property: Kd (nM)

[
  {
    "Sequence Text": "EIKFNDITF",
    "Readout Value": 1060
  }
]

---

Items are presented alongside their recorded Kd.
# Measurement Target: HLA-B*07:02
# Procedure Details: IEDB peptide-MHC binding, purified MHC/direct/fluorescence; filed as Kd, often an IC50 or EC50 that approximates it; bounds were set here for any values at or beyond the usual limits of such assays
# Condition Parameters: source organism: Coxiella burnetii
Reported Property: Kd

[
  {
    "Sequence Text": "MTFPVSLEY",
    "Readout Value": "≥ 20 µM"
  },
  {
    "Sequence Text": "AISRLRTQK",
    "Readout Value": "≥ 20 µM"
  }
]

---

# Measurement Target: HLA-A*02:01
# Procedure Details: IEDB peptide-MHC binding, purified MHC/direct/fluorescence; filed as Kd, often an IC50 or EC50 that approximates it; bounds were set here for any values at or beyond the usual limits of such assays
# Condition Parameters: source organism: Mammarenavirus machupoense
pKd: −log10 of the molar value.

[
  {
    "Sequence Text": "FHEFLSSKL",
    "Measurement Target": "HLA-A*02:01",
    "pKd": "≤ 4.70"
  }
]

---

# Measurement Target: HLA-B*57:01
# Procedure Details: IEDB peptide-MHC binding, purified MHC/competitive/fluorescence; filed as Kd, often an IC50 or EC50 that approximates it; bounds were set here for any values at or beyond the usual limits of such assays
# Condition Parameters: source organism: Listeria monocytogenes serotype 4b str. H7858
Reported Property: Kd

[
  {
    "Sequence Text": "ITWPRTRHW",
    "Measurement Target": "HLA-B*57:01",
    "Reported Property": "Kd",
    "Readout Value": "33 nM"
  }
]

---

# Measurement Target: HLA-B*07:02
# Procedure Details: IEDB peptide-MHC binding, purified MHC/direct/fluorescence; filed as Kd, often an IC50 or EC50 that approximates it; bounds were set here for any values at or beyond the usual limits of such assays
# Condition Parameters: source organism: Giardia lamblia ATCC 50803

[
  {
    "Sequence Text": "ARADGILRF",
    "Kd": "≥ 20 µM"
  }
]

---

# Measurement Target: HLA-A*02:01
# Procedure Details: IEDB peptide-MHC binding, purified MHC/competitive/fluorescence; bounds were set here for any values at or beyond the usual limits of such assays
# Condition Parameters: source organism: Variola virus
Parameter: IC50. Scope: all listed entries.

[
  {
    "Sequence Text": "SLTKLFSYG",
    "Measurement Target": "HLA-A*02:01",
    "Units": "µM",
    "Bound Type": "=",
    "IC50": 8.92
  },
  {
    "Sequence Text": "LLWFNYLFG",
    "Measurement Target": "HLA-A*02:01",
    "Units": "µM",
    "Bound Type": "≥",
    "IC50": 327
  }
]

---

# Measurement Target: HLA-A*02:16
# Procedure Details: IEDB peptide-MHC binding, purified MHC/competitive/fluorescence; filed as Kd, often an IC50 or EC50 that approximates it; bounds were set here for any values at or beyond the usual limits of such assays
# Condition Parameters: source organism: Entamoeba histolytica HM-1:IMSS
Reported Property: Kd (nM)

[
  {
    "Sequence Text": "SLKERIDML",
    "Units": "nM",
    "Bound Type": "=",
    "Readout Value": 2.8
  },
  {
    "Sequence Text": "IEAKINVAD",
    "Units": "nM",
    "Bound Type": "≥",
    "Readout Value": 20000
  }
]

---

# Measurement Target: HLA-B*35:01
# Procedure Details: IEDB peptide-MHC binding, purified MHC/competitive/radioactivity; filed as Kd, often an IC50 or EC50 that approximates it; bounds were set here for any values at or beyond the usual limits of such assays
# Condition Parameters: source organism: Vaccinia virus WR

[
  {
    "Sequence Text": "NPNCLEWLRA",
    "Bound Type": "=",
    "Kd (µM)": 1.16
  },
  {
    "Sequence Text": "KPVIVPDIKL",
    "Bound Type": "=",
    "Kd (µM)": 8.87
  },
  {
    "Sequence Text": "PPLISILMI",
    "Bound Type": "=",
    "Kd (µM)": 19.3
  },
  {
    "Sequence Text": "AFEFINSLLK",
    "Bound Type": "≥",
    "Kd (µM)": 69.9
  },
  {
    "Sequence Text": "EPEKDIRELL",
    "Bound Type": "≥",
    "Kd (µM)": 35.5
  },
  {
    "Sequence Text": "EPISDYSAEV",
    "Bound Type": "=",
    "Kd (µM)": 1.08
  },
  {
    "Sequence Text": "RPRVTKQYIV",
    "Bound Type": "=",
    "Kd (µM)": 11.5
  }
]

---

# Measurement Target: HLA-C*05:01
# Procedure Details: IEDB peptide-MHC binding, purified MHC/direct/fluorescence; filed as Kd, often an IC50 or EC50 that approximates it; bounds were set here for any values at or beyond the usual limits of such assays
# Condition Parameters: source organism: Orthomarburgvirus marburgense
pKd: −log10 of the molar value.

[
  {
    "Sequence Text": "IFDDLQGSL",
    "pKd": 5.42
  }
]

---

# Measurement Target: HLA-B*58:01
# Procedure Details: IEDB peptide-MHC binding, purified MHC/direct/fluorescence; filed as Kd, often an IC50 or EC50 that approximates it; bounds were set here for any values at or beyond the usual limits of such assays
# Condition Parameters: source organism: Rickettsia prowazekii
Reported Property: Kd

[
  {
    "Sequence Text": "GQFGSGWTW",
    "Reported Property": "Kd",
    "Readout Value": "168 nM"
  }
]

---

# Measurement Target: HLA-B*15:09
# Procedure Details: IEDB peptide-MHC binding, purified MHC/direct/fluorescence; filed as Kd, often an IC50 or EC50 that approximates it; bounds were set here for any values at or beyond the usual limits of such assays
# Condition Parameters: source organism: Yellow fever virus

[
  {
    "Sequence Text": "FHKRDMRLL",
    "Kd": "3 µM"
  }
]

---

# Measurement Target: HLA-B*57:01
# Procedure Details: IEDB peptide-MHC binding, purified MHC/direct/fluorescence; filed as Kd, often an IC50 or EC50 that approximates it; bounds were set here for any values at or beyond the usual limits of such assays
# Condition Parameters: source organism: Mammarenavirus juninense
pKd: −log10 of the molar value.
Reported Property: pKd

[
  {
    "Sequence Text": "QVKRREGMF",
    "Readout Value": "≤ 4.70"
  }
]

---

# Measurement Target: HLA-A*68:02
# Procedure Details: IEDB peptide-MHC binding, purified MHC/competitive/radioactivity; filed as Kd, often an IC50 or EC50 that approximates it; bounds were set here for any values at or beyond the usual limits of such assays
# Condition Parameters: source organism: Vaccinia virus WR
pKd: −log10 of the molar value.
Reported Property: pKd

[
  {
    "Sequence Text": "AFEFINSLLK",
    "Readout Value": 4.94
  }
]

---

# Measurement Target: HLA-A*24:02
# Procedure Details: IEDB peptide-MHC binding, purified MHC/direct/fluorescence; filed as Kd, often an IC50 or EC50 that approximates it; bounds were set here for any values at or beyond the usual limits of such assays
# Condition Parameters: source organism: Influenza A virus (A/tern/Australia/1/04(H2N5))

[
  {
    "Sequence Text": "LLTEVETYV",
    "Kd": "≥ 20 µM"
  }
]
